- MEASUREMENT TARGET: recombinant human DPP8 (Homo sapiens)
- Construct: purchased PBS Bioscience
- Sequence (Q6V1X1 whole entry): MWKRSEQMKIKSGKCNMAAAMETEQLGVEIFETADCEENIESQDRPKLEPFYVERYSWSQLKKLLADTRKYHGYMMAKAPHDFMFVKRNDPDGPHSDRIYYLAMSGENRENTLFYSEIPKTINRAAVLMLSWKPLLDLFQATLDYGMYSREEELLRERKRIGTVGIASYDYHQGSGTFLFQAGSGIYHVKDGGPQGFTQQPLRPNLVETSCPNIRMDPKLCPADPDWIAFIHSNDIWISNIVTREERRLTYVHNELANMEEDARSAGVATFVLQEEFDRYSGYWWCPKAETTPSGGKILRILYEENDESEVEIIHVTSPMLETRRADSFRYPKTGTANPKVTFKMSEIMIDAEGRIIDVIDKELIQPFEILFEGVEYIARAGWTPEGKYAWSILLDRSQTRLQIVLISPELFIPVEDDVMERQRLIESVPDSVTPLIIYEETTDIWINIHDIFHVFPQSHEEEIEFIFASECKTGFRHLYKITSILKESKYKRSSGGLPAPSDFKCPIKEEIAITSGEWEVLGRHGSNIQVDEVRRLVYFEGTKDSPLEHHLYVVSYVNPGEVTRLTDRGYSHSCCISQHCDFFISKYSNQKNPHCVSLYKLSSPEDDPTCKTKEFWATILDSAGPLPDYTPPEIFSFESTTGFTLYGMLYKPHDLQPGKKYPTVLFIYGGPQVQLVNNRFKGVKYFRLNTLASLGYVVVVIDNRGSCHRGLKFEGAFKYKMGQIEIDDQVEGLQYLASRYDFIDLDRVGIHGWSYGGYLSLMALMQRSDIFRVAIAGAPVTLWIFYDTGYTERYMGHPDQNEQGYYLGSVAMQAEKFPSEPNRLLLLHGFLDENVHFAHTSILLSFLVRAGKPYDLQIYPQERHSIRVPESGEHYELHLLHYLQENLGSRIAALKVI
- ASSAY NAME: DPP8 inhibition, fluorogenic substrate Z-Ala-Pro-AMC
- Assay type: biochemical
- EXPERIMENTAL PARAMETERS: recombinant human DPP8
Listing: IC50 of selected compounds
Only the number, expressed in µM, is required.

Please review the entries below; each comes with its answer.
COMPOUND	UNIT INFO	IC50
Cc1ccc(N[C@H]2CCN(CC(=O)N3C[C@@H](F)C[C@H]3C#N)C2)c2cccnc12 [Example 262]	µM	3.01
N#C[C@@H]1C[C@H](F)CN1C(=O)CN1CCC(Oc2ccc3cnccc3c2)CC1 [Example 422]	µM	6.42
N#C[C@@H]1C[C@H](F)CN1C(=O)CN1CC[C@@H](Nc2ccnc3ccccc23)C1 [Example 170]	µM	14

For reference, reported IC50 for N#C[C@@H]1C[C@H](F)CN1C(=O)CN1CCC(Nc2ccc([N+](=O)[O-])c3cnccc23)CC1 [Example 356] stands at 0.953

For reference, reported IC50 for N#C[C@@H]1CCCN1C(=O)CN1CCC(Oc2ccnc3ccc(F)cc23)CC1 [Example 427] stands at 36.6

For reference, reported IC50 for Cc1cncc2cccc(NC3CCN(CC(=O)N4C[C@@H](F)C[C@H]4C#N)CC3)c12 [Example 354] stands at 1.78

For reference, reported IC50 for CN(c1cccc2ncc(F)cc12)[C@H]1CCN(CC(=O)N2C[C@@H](F)C[C@H]2C#N)C1 [Example 156] stands at 12

For reference, reported IC50 for Cc1cnc2cccc(N(C)[C@H]3CCN(CC(=O)N4C[C@@H](F)C[C@H]4C#N)C3)c2c1 [Example 155] stands at 9.85

For reference, reported IC50 for N#C[C@@H]1CCCN1C(=O)CN1CCC(Nc2ccc(C(=O)Nc3ccccn3)c3ncccc23)CC1 [Example 399] stands at 1.2

For reference, reported IC50 for COc1ccc2nc(C)cc(OC3CCN(CC(=O)N4C[C@@H](F)C[C@H]4C#N)CC3)c2c1 [Example 424] stands at 13.1

For reference, reported IC50 for CN(c1ccc(C(F)(F)F)c2ncccc12)[C@H]1CCN(CC(=O)N2C[C@@H](F)C[C@H]2C#N)C1 [Example 159] stands at 7.59

====

Listing: pIC50 of selected molecules
- MEASUREMENT TARGET: recombinant human DPP9 (Homo sapiens, UniProt Q86TI2)
- Construct: purchased R&D Systems
- Sequence (Q86TI2 whole entry): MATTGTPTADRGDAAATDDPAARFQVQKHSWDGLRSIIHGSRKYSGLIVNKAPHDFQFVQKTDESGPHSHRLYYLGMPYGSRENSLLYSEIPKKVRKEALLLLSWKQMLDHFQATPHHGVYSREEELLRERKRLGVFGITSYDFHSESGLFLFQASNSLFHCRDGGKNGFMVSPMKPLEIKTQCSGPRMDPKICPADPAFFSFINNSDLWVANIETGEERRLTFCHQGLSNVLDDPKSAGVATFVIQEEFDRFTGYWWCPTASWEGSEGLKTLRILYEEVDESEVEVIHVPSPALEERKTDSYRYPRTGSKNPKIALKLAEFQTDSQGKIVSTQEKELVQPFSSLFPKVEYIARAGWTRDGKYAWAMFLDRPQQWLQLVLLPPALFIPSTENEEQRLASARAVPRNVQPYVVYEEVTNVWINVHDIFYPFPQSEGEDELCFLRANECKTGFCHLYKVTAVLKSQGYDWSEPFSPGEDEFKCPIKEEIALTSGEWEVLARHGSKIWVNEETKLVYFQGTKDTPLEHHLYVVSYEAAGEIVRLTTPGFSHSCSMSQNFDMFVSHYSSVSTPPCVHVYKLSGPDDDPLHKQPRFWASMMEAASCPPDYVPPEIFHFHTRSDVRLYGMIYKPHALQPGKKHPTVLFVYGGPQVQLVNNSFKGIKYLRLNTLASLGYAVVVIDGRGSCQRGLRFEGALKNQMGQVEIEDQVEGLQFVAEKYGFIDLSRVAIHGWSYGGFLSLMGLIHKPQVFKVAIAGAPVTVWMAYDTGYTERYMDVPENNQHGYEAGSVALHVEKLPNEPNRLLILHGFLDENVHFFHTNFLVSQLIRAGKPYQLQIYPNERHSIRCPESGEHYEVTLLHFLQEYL
- ASSAY NAME: DPP9 inhibition, fluorogenic substrate H-Gly-Pro-AMC
- Format: biochemical
- EXPERIMENTAL PARAMETERS: 25° C., H-Gly-Pro-AMC substrate
Just the number, please; pIC50 means minus log10 of the concentration in mol/L.

MOLECULE	READOUT NUMBER
N#C[C@@H]1C[C@H](F)CN1C(=O)CN1CCC(Oc2ccnc3ccc(F)cc23)CC1 [Example 126]	4.96

recombinant human DPP9 (Homo sapiens, UniProt Q86TI2) data for N#C[C@@H]1CCCN1C(=O)CN1CC[C@H](Nc2cncc3ccccc23)C1 [Example 19] ; its pIC50: 4.36

recombinant human DPP9 (Homo sapiens, UniProt Q86TI2) data for N#C[C@@H]1CC(F)(F)CN1C(=O)CN1CC[C@H](Nc2ccc(-c3ccccc3)cc2)C1 [Example 14] ; its pIC50: 4.96

recombinant human DPP9 (Homo sapiens, UniProt Q86TI2) data for N#C[C@@H]1CCCN1C(=O)CN1CC[C@H](Oc2ccc(Cl)c3cccnc23)C1 [Example 81] ; its pIC50: 4.07
